# tested on: Ec65 (Escherichia coli, UniProt P0A6X3 1-65, del66-102)
# experimental details: EMSA; Hill n 3.1; EMSA: 34 mM Tris-HCl pH 7.5, 50 mM NaCl, 50 mM KCl, 50 mM NH4Cl, 11.4 mM EDTA, 12% glycerol, 30 C, 30 min, ~1 nM 32P-RNA, Kd in Hfq6; anisotropy: 10 mM Tris-HCl
# study conditions: protein: recombinant; tags: untagged; chain copies: 6; label: 32P; stem-loops
parameter: Kd

Lookup: Reported Kd, binder RybB (structured_RNA) RNA: GGCCACUGCUUUUCUUUGAUGUCCCCAUUUUGUGGAGCCCAUCAACCCCGCCAUUUCGGUUCAAGGUUGAUGGGUUUUUU : ____
Found: 27.1 nM
